Target: T1, Med25-ACID_(532-680), activator interaction domain (ACID) of mediator complex subunit 25 (Arabidopsis thaliana, UniProt Q7XYY2 532-680)
T1 construct: 15N- or 13C,15N-labelled in the NMR titrations; unlabelled in ITC, CEST and stopped-flow; also called AtMed25-ACID; ACID domain; source: E. coli BL21 DE3, purified (glutathione Sepharose, TEV cleavage, cation exchange, SEC); not shown: GST, N-terminal, cleaved
T1 sequence (looked up): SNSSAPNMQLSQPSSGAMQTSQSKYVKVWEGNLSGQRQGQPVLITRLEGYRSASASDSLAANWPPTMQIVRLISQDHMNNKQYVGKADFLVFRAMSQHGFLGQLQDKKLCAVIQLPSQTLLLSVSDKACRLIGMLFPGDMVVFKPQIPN
Test: ITC; 25 °C; 50 mM HEPES pH 7.4, 100 mM NaCl, 0.5 mM TCEP; ~1:10 cell to syringe concentration ratio, cell around 15 µM for high-affinity fragments; one-set-of-sites model; which protein was in the cell is not stated
Details: both partners purified
Measured Attribute: Kd

DREB2A_(195-276) E263P (domain or fragment, Arabidopsis thaliana, UniProt O82132 195-276, looked up, also called helix-disrupting DREB2A E263P variant; source: E. coli BL21 DE3, purified (glutathione Sepharose, TEV cleavage, SEC); not shown: GST, N-terminal, cleaved) VKADKHWLSEFEHNYWSDILKEKEKQKEQGIVETCQQQQQDSLSVADYGWPNDVDQSHLDSSDMFDVDPLLRDLNGDDVFAG; 580 nM
DREB2A_(195-276) (domain or fragment, Arabidopsis thaliana, UniProt O82132 195-276, looked up, source: E. coli BL21 DE3, purified (glutathione Sepharose, TEV cleavage, SEC); not shown: GST, N-terminal, cleaved) VKADKHWLSEFEHNYWSDILKEKEKQKEQGIVETCQQQQQDSLSVADYGWPNDVDQSHLDSSDMFDVDELLRDLNGDDVFAG; 450 nM
QDSLSVADYGWPNDVDQSHLDSSDMFDVDELLRDLNGDD (domain or fragment, Arabidopsis thaliana, UniProt O82132 234-272, looked up, DREB2A, Arabidopsis thaliana, AT5G05410, residues 234-272; source: E. coli BL21 DE3, purified (glutathione Sepharose, TEV cleavage, SEC); not shown: GST, N-terminal, cleaved) [DREB2A_(234-272)]; 1800 nM
DREB2A_(195-335,Δ244-276) (domain or fragment, Arabidopsis thaliana, UniProt O82132 195-335, looked up, also called splice variant fragment; source: E. coli BL21 DE3, purified (glutathione Sepharose, TEV cleavage, SEC); not shown: GST, N-terminal, cleaved) VKADKHWLSEFEHNYWSDILKEKEKQKEQGIVETCQQQQQDSLSVADYGLNQDRYPGNSVANGSYRPESQQSGFDPLQSLNYGIPPFQLEGKDGNGFFDDLSYLDLEN; 5400 nM
DREB2A_(195-276) F259A (domain or fragment, Arabidopsis thaliana, UniProt O82132 195-276, looked up, source: E. coli BL21 DE3, purified (glutathione Sepharose, TEV cleavage, SEC); not shown: GST, N-terminal, cleaved) VKADKHWLSEFEHNYWSDILKEKEKQKEQGIVETCQQQQQDSLSVADYGWPNDVDQSHLDSSDMADVDELLRDLNGDDVFAG; 550 nM
DREB2A_(195-276) V239A (domain or fragment, Arabidopsis thaliana, UniProt O82132 195-276, looked up, source: E. coli BL21 DE3, purified (glutathione Sepharose, TEV cleavage, SEC); not shown: GST, N-terminal, cleaved) VKADKHWLSEFEHNYWSDILKEKEKQKEQGIVETCQQQQQDSLSAADYGWPNDVDQSHLDSSDMFDVDELLRDLNGDDVFAG; 2000 nM
QDSLSVADYGWANDVDQSHLDSSDMFDVDELLRDLNGDDVFAG (domain or fragment, Arabidopsis thaliana, UniProt O82132 234-276, looked up, Isotope-labelled in the CEST experiments; also called ABS-RIM_(P245A); DREB2A_(P245A); source: E. coli BL21 DE3, purified (glutathione Sepharose, TEV cleavage, SEC); not shown: GST, N-terminal, cleaved) [DREB2A_(234-276,P245A)]; 780 nM
QDSLSVADYGWPNDVDQSHLDSSDMFDVDELLRDLNGDDVFAG (domain or fragment, Arabidopsis thaliana, UniProt O82132 234-276, looked up, 13C,15N-labelled in the CEST experiments; Populates cis (30 ± 1%) and trans Trp244-Pro245 isomers in the free state; also called bivalent ABS-RIM fragment; source: E. coli BL21 DE3, purified (glutathione Sepharose, TEV cleavage, SEC); not shown: GST, N-terminal, cleaved) [DREB2A_(234-276) (ABS-RIM)]; 510 nM
QDSLSVADYGWPNDVDQSHLDSS (domain or fragment, Arabidopsis thaliana, UniProt O82132 234-256, looked up, also called monovalent ABS fragment; source: E. coli BL21 DE3, purified (glutathione Sepharose, TEV cleavage, SEC); not shown: GST, N-terminal, cleaved) [DREB2A_(234-256) (ABS)]; 6000 nM
DREB2A_(195-276) L237A (domain or fragment, Arabidopsis thaliana, UniProt O82132 195-276, looked up, source: E. coli BL21 DE3, purified (glutathione Sepharose, TEV cleavage, SEC); not shown: GST, N-terminal, cleaved) VKADKHWLSEFEHNYWSDILKEKEKQKEQGIVETCQQQQQDSASVADYGWPNDVDQSHLDSSDMFDVDELLRDLNGDDVFAG; 2400 nM
